Reported inhibition values for the following molecules.
# experimental system: Intestinal-type alkaline phosphatase (Homo sapiens) (UniProt P09923)
# Sequence (P09923 whole entry, looked up): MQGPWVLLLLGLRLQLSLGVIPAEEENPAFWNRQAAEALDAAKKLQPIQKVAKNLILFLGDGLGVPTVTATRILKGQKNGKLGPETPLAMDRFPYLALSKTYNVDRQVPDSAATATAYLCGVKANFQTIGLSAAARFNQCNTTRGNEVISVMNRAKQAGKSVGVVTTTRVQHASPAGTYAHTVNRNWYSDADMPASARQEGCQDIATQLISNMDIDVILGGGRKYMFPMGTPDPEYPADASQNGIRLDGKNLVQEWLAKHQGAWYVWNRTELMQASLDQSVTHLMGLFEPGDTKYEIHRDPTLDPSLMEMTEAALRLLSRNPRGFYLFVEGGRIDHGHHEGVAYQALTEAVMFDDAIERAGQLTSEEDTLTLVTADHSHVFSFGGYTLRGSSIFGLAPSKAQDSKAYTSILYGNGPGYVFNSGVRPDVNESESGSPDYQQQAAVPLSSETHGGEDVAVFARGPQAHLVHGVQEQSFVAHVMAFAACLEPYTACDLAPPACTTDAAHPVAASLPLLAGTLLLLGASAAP
# method summary: blockers of intestinal alkaline phosphatase activity – biochemical, luminescence, uHTS, primary screen (AID 2544);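 further: plate controls were DMSO wells with enzyme for no effect and no-enzyme buffer wells for full effect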
# experimental context: purified IAP, CDP-Star luminescence, 30 min; at 10 µM; hits give high values
The campaign covered roughly 330,000 compounds. About 390 (0.12%) were called active. The entries come from a sample that favours actives as a whole.
assay endpoint: inhibition (%)

{"molecule": "CCOCc1nnc(NC(=O)CCS(=O)(=O)Cc2ccccc2)s1", "experimental system": "Intestinal-type alkaline phosphatase (Homo sapiens) (UniProt P09923)", "reported result": -9.2}
{"molecule": "O=C(NC1=NCCS1)[C@H](Cc1ccccc1)N1C(=O)c2ccccc2C1=O", "experimental system": "Intestinal-type alkaline phosphatase (Homo sapiens) (UniProt P09923)", "reported result": 4.4}
{"molecule": "O=C(CCN1C(=O)c2ccccc2C1=O)NCCN1CCOCC1", "experimental system": "Intestinal-type alkaline phosphatase (Homo sapiens) (UniProt P09923)", "reported result": -14.9}
{"molecule": "COC(=O)CSc1nnc(NC(=O)CCc2ccccc2)s1", "experimental system": "Intestinal-type alkaline phosphatase (Homo sapiens) (UniProt P09923)", "reported result": -5.1}
{"molecule": "CC(C)(C)c1ccc(/C=C2\\Oc3c(ccc(O)c3CN3CCN(CCO)CC3)C2=O)cc1", "experimental system": "Intestinal-type alkaline phosphatase (Homo sapiens) (UniProt P09923)", "reported result": 8.9}
{"molecule": "O=C(CCCl)Nc1ccc(S(=O)(=O)NCc2ccco2)cc1", "experimental system": "Intestinal-type alkaline phosphatase (Homo sapiens) (UniProt P09923)", "reported result": 7.1}
{"molecule": "CN(CC(=O)Nc1cccc(F)c1)C(=O)C1CC(=O)N(CCc2ccccc2)C1 (stereo unspecified)", "experimental system": "Intestinal-type alkaline phosphatase (Homo sapiens) (UniProt P09923)", "reported result": 2.5}
{"molecule": "O=C(NCCN1CCOCC1)[C@H](Cc1ccccc1)N1C(=O)c2ccccc2C1=O", "experimental system": "Intestinal-type alkaline phosphatase (Homo sapiens) (UniProt P09923)", "reported result": 41.1}
{"molecule": "CSc1ccc(S(=O)(=O)Nc2cccc(F)c2)cc1", "experimental system": "Intestinal-type alkaline phosphatase (Homo sapiens) (UniProt P09923)", "reported result": 7}
{"molecule": "O=C(NNC1=C(C(=O)C(F)(F)F)CCC1)c1ccncc1", "experimental system": "Intestinal-type alkaline phosphatase (Homo sapiens) (UniProt P09923)", "reported result": -34.2}
{"molecule": "COCCSc1nnc(NC(=O)CCS(=O)(=O)Cc2ccccc2)s1", "experimental system": "Intestinal-type alkaline phosphatase (Homo sapiens) (UniProt P09923)", "reported result": 35.1}

---

# experimental system: Intestinal-type alkaline phosphatase (Homo sapiens) (UniProt P09923)
# method summary: blockers of intestinal alkaline phosphatase activity – biochemical, luminescence, uHTS, primary screen (AID 2544);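 further: plate controls were DMSO wells with enzyme for no effect and no-enzyme buffer wells for full effect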
# experimental context: purified IAP, CDP-Star luminescence, 30 min; at 10 µM; hits give high values
Hit rate of the full screen: of about 330,000 compounds, about 390 (0.12%) were called active. For the sample, actives were picked, then their nearest neighbours and some compounds at random.
Reported inhibition values for the following compounds.
assay endpoint: inhibition

{"compound": "O=C(CN(C(=O)c1csnn1)c1ccc(Br)cc1)NC1CCCC1", "assay endpoint": "inhibition", "reported result": "-3.8% (inactive)"}
{"compound": "COc1ccc(Cl)cc1-n1c(=S)sc2c(=O)n(-c3ccc(F)cc3)c(SCC(=O)O)nc21", "assay endpoint": "inhibition", "reported result": "10.8% (inactive)"}
{"compound": "Cc1ccc(N(CC(=O)NCC2CCCO2)C(=O)CNS(=O)(=O)c2ccc(Cl)cc2)cc1 (centres undefined)", "assay endpoint": "inhibition", "reported result": "6.2% (inactive)"}
{"compound": "CS(=O)(=O)N(CC(=O)N1CCOCC1)c1cccc(Cl)c1Cl", "assay endpoint": "inhibition", "reported result": "-16.2% (inactive)"}
{"compound": "COc1ccc(-c2cn3ccc(C)cc3n2)cc1", "assay endpoint": "inhibition", "reported result": "-3.2% (inactive)"}
{"compound": "COc1nnc(-c2ccc(C)c(S(=O)(=O)N(C)C)c2)c2ccccc12", "assay endpoint": "inhibition", "reported result": "1.6% (inactive)"}
{"compound": "Cc1cccn2c(=O)nc(SCC(=O)NCc3ccccc3Cl)nc12", "assay endpoint": "inhibition", "reported result": "-1.6% (inactive)"}
{"compound": "O=C(NCc1ccco1)c1ccc(Cn2c(=O)c3sccc3n(Cc3ccc(F)cc3)c2=O)cc1", "assay endpoint": "inhibition", "reported result": "1.3% (inactive)"}
{"compound": "NC(N)=Nc1nc2ccc(Br)cc2c(=O)[nH]1", "assay endpoint": "inhibition", "reported result": "-7.7% (inactive)"}
{"compound": "CCOC(=O)C1CCN(Cc2coc3ccc(Cl)cc3c2=O)CC1", "assay endpoint": "inhibition", "reported result": "-6.6% (inactive)"}
{"compound": "CCN(C(=O)COC(=O)Cc1c(F)cccc1Cl)c1c(N)n(Cc2ccccc2)c(=O)[nH]c1=O", "assay endpoint": "inhibition", "reported result": "-9.2% (inactive)"}
{"compound": "COc1ccc(C(C#N)N2N=C(C)CC2(C)C)cc1 (centres undefined)", "assay endpoint": "inhibition", "reported result": "-6.2% (inactive)"}
{"compound": "c1ccc(-c2nnc3n2NC(c2ccc4c(c2)OCO4)S3)cc1 (centres undefined)", "assay endpoint": "inhibition", "reported result": "-10.6% (inactive)"}
{"compound": "CC(C)(C)OC(=O)N1CCC(NC(=O)c2[nH]cnc2C(=O)N[C@@H](Cc2ccccc2)C(=O)OCc2ccccc2)CC1", "assay endpoint": "inhibition", "reported result": "-35.2% (inactive)"}
{"compound": "Cc1cc([N+](=O)[O-])nn1CCCC(=O)Nc1cccnc1Cl", "assay endpoint": "inhibition", "reported result": "6.1% (inactive)"}
{"compound": "CCOC(=O)N1CCC(NC(=O)CN2C(=O)COc3ccc(C(C)(C)C)cc32)CC1", "assay endpoint": "inhibition", "reported result": "-21.5% (inactive)"}
{"compound": "CCc1cc(CNC(=O)CC2C(=O)NCCN2CC2CCCCC2)on1 (centres undefined)", "assay endpoint": "inhibition", "reported result": "-7.8% (inactive)"}
{"compound": "COC(=O)NNC(=O)C1CCC(C)CC1 (centres undefined)", "assay endpoint": "inhibition", "reported result": "-0.3% (inactive)"}
{"compound": "CN1CCN(CC(=O)C23CC4CC(CC(C4)C2)C3)CC1", "assay endpoint": "inhibition", "reported result": "4.5% (inactive)"}
{"compound": "CCOc1ccc(NC(=O)CN(C)C(=O)CCSc2ccc(F)cc2)cc1OCC", "assay endpoint": "inhibition", "reported result": "-1.7% (inactive)"}
{"compound": "Cc1ccccc1N1CC(C(=O)Nc2nnc(SCCC3OCCO3)s2)CC1=O (centres undefined)", "assay endpoint": "inhibition", "reported result": "18.3% (inactive)"}
{"compound": "NC(=O)c1nsc(C(=O)N(CC(=O)NCc2ccc(F)cc2)Cc2ccco2)c1N", "assay endpoint": "inhibition", "reported result": "-10.8% (inactive)"}
{"compound": "C=CCn1c(=S)sc2c(=O)[nH]c(C)nc21", "assay endpoint": "inhibition", "reported result": "-10.3% (inactive)"}
{"compound": "CN1C=CC=C/C1=C1\\SC(=S)N(Cc2ccccc2)C1=O", "assay endpoint": "inhibition", "reported result": "-4.6% (inactive)"}
{"compound": "CC1CN/C(=C\\C(=O)c2ccc(Br)cc2)C(=O)N1 (centres undefined)", "assay endpoint": "inhibition", "reported result": "-17% (inactive)"}
{"compound": "CCCc1ccc(C(=O)[C@@H]2[C@@H](C(C)=O)N3c4ccc(F)cc4C=C[C@@H]3[C@@]23C(=O)Nc2ccccc23)cc1", "assay endpoint": "inhibition", "reported result": "0% (inactive)"}
{"compound": "O=C(CSc1nccn1-c1cccc(F)c1)NC1CCCC1", "assay endpoint": "inhibition", "reported result": "2.7% (inactive)"}
{"compound": "Cc1cc(C)c(SCCc2ccncc2)c(C)c1", "assay endpoint": "inhibition", "reported result": "-12.6% (inactive)"}
{"compound": "Cn1c(=O)c2sccc2n(Cc2ccc(Br)cc2)c1=O", "assay endpoint": "inhibition", "reported result": "38.1% (active)"}
{"compound": "O=C(Nc1cc(S(=O)(=O)N2CCOCC2)ccc1OCC(F)(F)F)c1ccc(N2CCCC2=O)cc1", "assay endpoint": "inhibition", "reported result": "2.5% (inactive)"}
{"compound": "COc1ccc(C2=Nc3cc(C)ccc3OC2)cc1", "assay endpoint": "inhibition", "reported result": "41.5% (active)"}
{"compound": "CCc1ccc(NC(=O)NC(C)c2ccc3c(c2)OCO3)cc1 (centres undefined)", "assay endpoint": "inhibition", "reported result": "-18.5% (inactive)"}
{"compound": "O=C(CC(Cc1ccccc1)C(=O)O)NCCc1ccc2c(c1)OCO2 (centres undefined)", "assay endpoint": "inhibition", "reported result": "-65.3% (inactive)"}
{"compound": "CC(=NCc1ccc2c(c1)OCO2)C1=C(O)c2ccccc2C1=O", "assay endpoint": "inhibition", "reported result": "82.2% (active)"}
{"compound": "c1ccc(CSCCc2ccncc2)cc1", "assay endpoint": "inhibition", "reported result": "39.6% (active)"}
{"compound": "Cn1c(SCc2nc3ccccc3s2)nnc1-c1ccc2c(c1)OCO2", "assay endpoint": "inhibition", "reported result": "16.7% (inactive)"}
{"compound": "O=C(CNC(=O)c1cc(=O)[nH]c2ccccc12)Nc1ccc(F)c(F)c1", "assay endpoint": "inhibition", "reported result": "-5.1% (inactive)"}
{"compound": "COc1cc(/C=C2/SC(=S)N(Cc3ccccc3)C2=O)cc(OC)c1O", "assay endpoint": "inhibition", "reported result": "39.3% (active)"}
{"compound": "CC(C)(C)c1ccc(SCCc2ccncc2)cc1", "assay endpoint": "inhibition", "reported result": "-36.5% (inactive)"}
{"compound": "Cn1c(=O)c2c(nc(N/N=C/c3cccs3)n2Cc2ccc(Br)cc2)n(C)c1=O", "assay endpoint": "inhibition", "reported result": "-142% (inactive)"}
{"compound": "CCn1nnnc1SCC(=O)c1ccc(C)cc1C", "assay endpoint": "inhibition", "reported result": "-4% (inactive)"}
{"compound": "CN1/C(=c2/s/c(=C3/C(=O)N(c4ccccc4)NC3=Nc3ccccc3)n(C)c2=O)C(C)(C)c2ccccc21", "assay endpoint": "inhibition", "reported result": "35% (active)"}
{"compound": "COC(=O)C(C)Sc1ccc2nnc(-c3cccc(F)c3)n2n1 (centres undefined)", "assay endpoint": "inhibition", "reported result": "-8.4% (inactive)"}
{"compound": "CC(=O)Nc1ccc(S(=O)(=O)NCC(=O)OCC(=O)c2ccc[nH]2)cc1", "assay endpoint": "inhibition", "reported result": "5.4% (inactive)"}
